Biological target: BTK enzyme (recombinant full-length BTK, hBTK) (Homo sapiens (Human), UniProt Q06187)
Sequence (Q06187 whole entry): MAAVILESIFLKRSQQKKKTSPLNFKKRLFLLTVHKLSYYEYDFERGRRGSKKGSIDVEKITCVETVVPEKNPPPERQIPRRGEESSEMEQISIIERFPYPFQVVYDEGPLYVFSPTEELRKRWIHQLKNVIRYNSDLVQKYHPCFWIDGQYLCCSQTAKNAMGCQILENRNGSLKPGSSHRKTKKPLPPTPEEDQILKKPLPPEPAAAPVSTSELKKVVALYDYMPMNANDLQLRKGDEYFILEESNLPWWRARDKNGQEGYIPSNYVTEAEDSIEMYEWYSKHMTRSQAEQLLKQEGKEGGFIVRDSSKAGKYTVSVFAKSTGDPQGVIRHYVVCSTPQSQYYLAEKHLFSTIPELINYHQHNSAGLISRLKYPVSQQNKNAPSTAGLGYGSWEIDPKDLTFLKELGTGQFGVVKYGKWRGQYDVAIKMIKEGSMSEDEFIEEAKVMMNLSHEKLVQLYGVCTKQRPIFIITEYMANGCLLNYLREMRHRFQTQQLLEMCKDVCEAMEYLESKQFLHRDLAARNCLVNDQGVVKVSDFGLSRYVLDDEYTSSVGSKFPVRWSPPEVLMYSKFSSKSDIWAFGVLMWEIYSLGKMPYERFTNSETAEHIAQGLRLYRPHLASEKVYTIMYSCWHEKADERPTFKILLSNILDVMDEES
Experiment: BTK enzymatic activity LANCE TR-FRET assay
Details: 50 pM hBTK, 25 μM ATP, 2 μM biotin-A5-peptide; compound range 1 μM to 0.017 nM; read-out: BTK binding IC50
Procedure: Btk Enzyme Activity Assay Methods BTK enzymatic activity was determined with the LANCE (Lanthanide Chelate Excite) TR-FRET (Time-resolved fluorescence resonance energy transfer) assay. […] After 60 minutes incubation with detection reagents, reaction plates were read on a PerkinElmer EnVision plate reader using standard TR-FRET protocol. […] IC50 values were determined by 4 parameter robust fit of TR-FRET ratio values vs. (Log10) compound concentrations.
value type: IC50 (nM)

Example cases with answers are listed next.
Q: Sample C[C@@](O)(c1ccc(-c2nc([C@H]3CC[C@@H]4COCC(=O)N4C3)n3c(Cl)cnc(N)c23)cc1)c1cccc(C(F)(F)F)c1 [Example 174] — what was its IC50?
Ans: 85.7

Q: Sample Cc1cccc([C@](C)(O)c2ccc(-c3nc([C@@H]4CC[C@H]5CCC(=O)N5C4)n4ccnc(N)c34)cc2)c1 [Example 46] — what was its IC50?
Ans: 0.23

(a) CCOc1cc(C(C)(O)c2cccc(C(F)(F)F)c2)cc(F)c1-c1nc([C@@H]2CC[C@H]3CCC(=O)N3C2)n2ccnc(N)c12 (stereo partly shown) [Example 22]
(b) Nc1nccn2c([C@@H]3CC[C@H]4CCC(=O)N4C3)nc(-c3ccc(C(O)(c4ccccc4)C(F)(F)F)cc3F)c12 (stereo partly shown) [Example 30]
Q: Out of a and b , name the one with the higher IC50. Kindly state the label of the option you pick.
Ans: b
(b: 2.8 nM, a: 1.7 nM)

(a) Nc1nccn2c([C@@H]3CC[C@H]4CCC(=O)N4C3)nc(-c3ccc([C@@](O)(c4ccccc4)C(F)(F)F)cc3)c12 [Example 26]
(b) CCc1cccc([C@](C)(O)c2ccc(-c3nc([C@@H]4CC[C@H]5CCC(=O)N5C4)n4ccnc(N)c34)cc2)c1 [Example 93]
(c) C[C@@](O)(c1ccc(-c2nc([C@@H]3CC[C@H]4C(C(F)(F)F)CC(=O)N4C3)n3ccnc(N)c23)cc1)c1cccc(C(F)F)c1 (stereo partly shown) [Example 182]
(d) C[C@](O)(c1ccc(-c2nc([C@@H]3CC[C@H]4CCC(=O)N4C3)n3ccnc(N)c23)cc1)c1cccc(-c2ccccc2)c1 [Example 58]
Q: Output the entries ranked by IC50 from maximum down to minimum. List the labels according to the requested ordering.
Ans: a, d, c, b

(1) C[C@](O)(c1ccc(-c2nc([C@@H]3CC[C@H]4CCC(=O)N4C3)n3ccnc(N)c23)cc1)c1cccc(CC(F)(F)F)c1 [Example 77]
(2) CC(C)N1CC(=O)N2C[C@@H](c3nc(-c4ccc([C@@](C)(O)c5cccc(C(F)(F)F)c5)cc4)c4c(N)nccn34)CC[C@@H]2C1 [Example 120]
Q: Out of 1 and 2 , name the one with the higher IC50. Kindly state the label of the option you pick.
Ans: 1

###

tested on: adenosine uptake into HeLa cells; assay: [3H]Adenosine uptake assay in HeLa cells; format: cell-based; details: Homo sapiens, HeLa, [3H]adenosine accumulation in HeLa cells; compound range 10 μM to 0.032 nM; read-out: ADU inhibition IC50
pIC50: −log10 of the molar value.
value type: pIC50

Example cases with answers are listed next.
Q: Sample `C[C@@](O)(c1ccc(-c2nc([C@@H]3CC[C@H]4CCC(=O)N4C3)n3ccnc(N)c23)cc1)c1ccnc(C(F)(F)F)c1` — what was its pIC50?
Ans: 5.56

Q: Sample CC(O)(c1ccc(-c2nc([C@@H]3CC[C@H]4CCC(=O)N4C3)n3ccnc(N)c23)cc1)c1cccc(F)c1 (stereo partly shown) — what was its pIC50?
Ans: 5.61

(I) C[C@@](O)(c1ccc(-c2nc([C@@H]3CC[C@H]4CCC(=O)N4C3)n3ccnc(N)c23)cc1)c1cccc(C#N)c1
(II) COc1ccccc1[C@](C)(O)c1ccc(-c2nc([C@@H]3CC[C@H]4CCC(=O)N4C3)n3ccnc(N)c23)cc1
Q: Out of I and II , name the one with the higher pIC50. Kindly state the label of the option you pick.
Ans: II
(II: 5.91, I: 5.45)

(A) C[C@](O)(c1ccccc1)c1ccc(-c2nc([C@@H]3CC[C@H]4CCC(=O)N4C3)n3ccnc(N)c23)cc1
(B) C[C@](O)(c1ccc(-c2nc([C@@H]3CC[C@H]4CCC(=O)N4C3)n3ccnc(N)c23)cc1)c1cccc(OC2CC2)c1
Q: Between A and B , which one has the lower reported pIC50 value? Kindly state the label of the option you pick.
Ans: A
(A: 5.48, B: 6.10)

###

biological target: BTK enzyme (recombinant full-length BTK, hBTK) (Homo sapiens (Human), UniProt Q06187); assay: BTK enzymatic activity LANCE TR-FRET assay; settings: 50 pM hBTK, 25 μM ATP, 2 μM biotin-A5-peptide; compound range 1 μM to 0.017 nM; read-out: BTK binding IC50
value type: IC50 (nM)

Example cases with answers are listed next.
Q: Sample `COc1cccc([C@](C)(O)c2ccc(-c3nc([C@@H]4CC[C@H]5CCC(=O)N5C4)n4ccnc(N)c34)cc2)c1` — what was its IC50?
Ans: 1.1

Q: Sample CCOc1cc(C(C)(O)c2cccc(C)c2)ccc1-c1nc([C@@H]2CC[C@H]3CCC(=O)N3C2)n2ccnc(N)c12 (some centres unmarked) [Example 168] — what was its IC50?
Ans: 60.3

Q: Sample CCOc1cc(C(C)(O)c2cccc(C)c2)ccc1-c1nc([C@@H]2CC[C@H]3CCC(=O)N3C2)n2ccnc(N)c12 (some centres unmarked) [Example 166] — what was its IC50?
Ans: 2

Q: Sample CCC(O)(c1ccc(-c2nc([C@@H]3CC[C@H]4CCC(=O)N4C3)n3ccnc(N)c23)cc1)c1cccc(C(F)(F)F)c1 (some centres unmarked) [Example 55] — what was its IC50?
Ans: 1000

Q: Sample COc1cc(-c2nc([C@@H]3CC[C@H]4CCC(=O)N4C3)n3ccnc(N)c23)ccc1C(C)(O)c1cccc(C(F)(F)F)c1 (some centres unmarked) [Example 65] — what was its IC50?
Ans: 7

Q: Sample NC(=O)C(O)(c1ccc(-c2nc([C@@H]3CC[C@H]4CCC(=O)N4C3)n3ccnc(N)c23)cc1)c1cccc(C(F)(F)F)c1 (some centres unmarked) [Example 97] — what was its IC50?
Ans: 894

Q: Sample CC(O)(c1cccc(C(F)F)c1)c1ccc(-c2nc([C@@H]3CC[C@H]4CCC(=O)N4C3)n3c(F)cnc(N)c23)c(F)c1 (some centres unmarked) [Example 207] — what was its IC50?
Ans: 459

Q: Sample `CN1CC[C@H]2CC[C@H](c3nc(-c4ccc([C@@](C)(O)c5cccc(C(F)(F)F)c5)cc4)c4c(N)nccn34)CN2C1=O` — what was its IC50?
Ans: 83.2

(A) COc1cc(C(O)(c2cccc(C(F)F)c2)C(F)(F)F)ccc1-c1nc([C@@H]2CC[C@H]3CCC(=O)N3C2)n2ccnc(N)c12 (some centres unmarked) [Example 211]
(B) COc1cccc([C@@](C)(O)c2ccc(-c3nc([C@@H]4CC[C@H]5CCC(=O)N5C4)n4ccnc(N)c34)cc2)c1
(C) C[C@](O)(c1ccc(-c2nc([C@@H]3CC[C@H]4CCC(=O)N4C3)n3ccnc(N)c23)cc1)c1cccc(C2CC2)c1
(D) COc1cc(-c2nc([C@@H]3CC[C@H]4CCC(=O)N4C3)n3ccnc(N)c23)ccc1[C@](C)(O)c1cccc(C2CC2)c1
(E) CC1OC(=O)N2C[C@H](c3nc(-c4ccc([C@@](C)(O)c5cccc(C(F)(F)F)c5)cc4)c4c(N)nccn34)OC[C@@H]12 (some centres unmarked)
Q: Hey, quick one: sort these by IC50, low to high? List the labels according to the requested ordering.
Ans: D, A, C, E, B
(D: 0.28 nM, A: 0.6 nM, C: 5.9 nM, E: 20.6 nM, B: 81.4 nM)

###

Molecular target: BTK enzyme (recombinant full-length BTK, hBTK) (Homo sapiens (Human), UniProt Q06187)
Experiment: BTK enzymatic activity LANCE TR-FRET assay
Assay type: biochemical
Conditions: 50 pM hBTK, 25 μM ATP, 2 μM biotin-A5-peptide; compound range 1 μM to 0.017 nM; read-out: BTK binding IC50
Method: Btk Enzyme Activity Assay Methods BTK enzymatic activity was determined with the LANCE (Lanthanide Chelate Excite) TR-FRET (Time-resolved fluorescence resonance energy transfer) assay. […] After 60 minutes incubation with detection reagents, reaction plates were read on a PerkinElmer EnVision plate reader using standard TR-FRET protocol. […] IC50 values were determined by 4 parameter robust fit of TR-FRET ratio values vs. (Log10) compound concentrations.
value type: IC50 (nM)

Example cases with answers are listed next.
Q: Sample Nc1nccn2c([C@@H]3CC[C@H]4CCC(=O)N4C3)nc(-c3ccc(C(O)(c4ccc(C(F)(F)F)cc4)C(F)(F)F)cc3)c12 (stereo partly shown) — what was its IC50?
Ans: 792

Q: Sample `CC(C)(c1cccc([C@@](C)(O)c2ccc(-c3nc([C@@H]4CC[C@H]5CCC(=O)N5C4)n4ccnc(N)c34)cc2)c1)C(F)(F)F` — what was its IC50?
Ans: 44.9

Q: Sample `COc1cc([C@@](C)(O)c2cccc(C(F)(F)F)c2)ccc1-c1nc([C@@H]2CC[C@H]3CCC(=O)N3C2)n2ccnc(N)c12` — what was its IC50?
Ans: 93.8

(a) CC(O)(c1cccc(C(F)(F)F)c1)c1ccc(-c2nc([C@@H]3CC[C@H]4CCC(=O)N4C3)n3ccnc(N)c23)c(Cl)c1 (stereo partly shown)
(b) CC(O)(c1ccc(-c2nc([C@@H]3CC[C@H]4CCC(=O)N4C3)n3ccnc(N)c23)cc1)c1cccc(C2CC2(F)F)c1 (stereo partly shown) [Example 165]
Q: Between a and b , which one has the lower reported IC50 value? Kindly state the label of the option you pick.
Ans: a
